system: K4 kissing-loop RNA reporter; assay: apparent KD of K4 kissing-loop reporter; higher = weaker reporter binding; settings: Eterna round: R107; input ligand: arginine 13.2 mM;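 note: bound reporter read as fluorescence of individual clusters on recovered sequencing chips by microscopy, with normalized cluster intensities fitted with a binding model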
parameterMeasured: apparent KD of K4 kissing-loop reporter (nM)
// return numeric value only (unit: nM, not printed)

Name the reported apparent KD of K4 kissing-loop reporter value associated with the sequence UUAUUGAGCGUUUGUGAGAAGGCGUUCUUCAAGGAUAUCGACGUAACGAGAAGGUGAUUCGUUCCGAGUGAUGUUCGGUACGGGC [theeternabot_sameState_KL_FMN_A_4]
185

For the sequence shown here, UGACUGGACUGAAGGAGCGUUGAAGGAGCGUAGUGAGUGAUGUUCACUACAGGUAGGUCGCAGCAGGUAGGUCGCAGUCUAGUCU [ArgBS 25 #DoubleAptamer #SwitchBubble] , give the reported apparent KD of K4 kissing-loop reporter.
107

Entry under review: CAUACGCAUGGAGGAUAUGAGAUUACUCAUAUCAUUUAAUAUUCUCAGUGAUGUUGAGAUUUGGGCUCAGAAGGCCAUGUGUAUG [Ex FMN B 15] . Reported apparent KD of K4 kissing-loop reporter?
304

Requested read-out: apparent KD of K4 kissing-loop reporter. Entry: CGAAGAAAGGUAUGUGGGAUCUGCGCGUAACGAGGACCGGUACGGCCGCCACUCGACGUCGCAUACGGCCCAGUGAUGUUGGGUG [theeternabot_sameState_KL_Trp_A_14]
55.9

Which apparent KD of K4 kissing-loop reporter value is on record for UGAUAGGACAGAAGGAGCGGUAGUGAUGUUGCCAAAAGAAUAAGGUGUCAAAAGACACCCUACCAGGUAGGUCGCUGUCCUAUCU ?
368

Look up apparent KD of K4 kissing-loop reporter for this sequence: UGCGCUGUGUACUGAAAUGUUCUGCGGGAUACCAGAGUCUUUUUAUUCCCUUGGCAGCUUGAGUGAUGUUUGAUGCCGUUCUUGU [tffeymullin]
279

Can you look up the measured apparent KD of K4 kissing-loop reporter of GGUAGCAUGGCGGCCGCCACUCGGACGACAUAGCACAUGUCGACCAGUGAUGUUGGUUCAAACACGAGGACCGGGCCAUGCUACC for me?
715

Item GGGCUGGUGCUAGGAUAUGCGAUGAAUGCUCAGAAAACCUUGAGUCCGCAGUGAUGUUGCGGCACCGCAGAAGGAGCUAAGGCUC [Reorinraor] has what recorded apparent KD of K4 kissing-loop reporter?
138

Query: apparent KD of K4 kissing-loop reporter; subject: UGGCGUUGAACCGCCGAAUCGCUGUGAGAAGGAGCGGUAAAAUUGCCAGGUAGGUCGCUCACAGCUUCACAGUGAUGUUGUGGAA [Enxeisen]
161

Each recorded value in this set is attributed to the supplement of paper PMC9170038.
